- Tested on: Molt4
- ASSAY: Apoptosis of lymphoid malignancy cell lines: Molt4
- Type: cell-based
- EXPERIMENTAL_SETUP: Homo sapiens, MOLT-4; Molt4, Acute T cell leukemia, 24 hours; read-out: Administration Dose (mean ± SD, μmol/L) Lethal Dose 50 (Apoptosis)
OBSERVED_PROPERTY: pEC50
# reply with the number alone; pEC50 is -log10 of concentration in mol/L

Lookup: # return recorded pEC50 for entry Cc1cc(C)c(OCC(=O)N/N=C/c2ccc3cc[nH]c3c2)c(C)c1
Found: 5.86

Lookup: Using known records, supply pEC50 for Cc1cc(C)c(OCC(=O)N/N=C/c2ccc3cc[nH]c3c2)c(C2CCOCC2)c1
Found: 6.60

Lookup: For the compound Cc1cc(C)c(OCC(=O)N/N=C/c2cccc3[nH]ccc23)c(C)c1 , give its measured pEC50 value.
Found: 5.80

###

- Test system: KMS26
- ASSAY: Apoptosis of lymphoid malignancy cell lines: KMS26
- Type: cell-based
- EXPERIMENTAL_SETUP: KMS-26; KMS26, Multiple myeloma, 24 hours; read-out: Administration Dose (mean ± SD, μmol/L) Lethal Dose 50 (Apoptosis)
Exercise: for every item that follows, state its recorded EC50.
Answer in µmol/L, number only, no unit symbol.

Lookup: Dear colleague, please send me the reported EC50 for Cc1cc(C)c(OCC(=O)N/N=C/c2ccc3cc[nH]c3c2)c(C2CCOC2)c1 (centres unmarked) when you can.
Found: 1.31

Lookup: Check the records and state EC50 for Cc1cc(C)c(OCC(=O)N/N=C/c2ccc3cc[nH]c3c2)c(C2CCOCC2)c1
Found: 0.55
